The measurements presented in this section are drawn from paper PMC9161259.

Below: a set of entries, each annotated with reported IC50.
- Tested on: HuCCA-1 cholangiocarcinoma cancer cell line
- EXPERIMENTAL_DETAILS: Cytotoxic assay
- CONDITION_DESCRIPTION: Homo sapiens, HuCC-A1, 48 h, read-out: Cytotoxic activity IC50, HuCCA-1
Lab book: enter the figure in µM, no units written.

Observe how each entry below is paired with its result.
COMPOUND	TARGET_UNDER_TEST	OBS_VALUE
COc1cccc2c1C(=O)c1c(O)c3c(c(O)c1C2=O)C[C@@](O)(C(=O)CO)C[C@@H]3O[C@H]1C[C@H](N)[C@H](O)[C@H](C)O1 [doxorubicin, reference compound]	HuCCA-1 cholangiocarcinoma cancer cell line	1.17
O=C1C(Cl)=C(Nc2cccc([N+](=O)[O-])c2)C(=O)c2ccccc21	HuCCA-1 cholangiocarcinoma cancer cell line	42.1

For the compound shown here, O=C1C(Br)=C(Nc2ccc(F)cc2)C(=O)c2ccccc21 , give the reported IC50.
16.2

For the compound shown here, O=C1C=C(Nc2ccc(F)cc2)C(=O)c2ccccc21 , give the reported IC50.
9.65

For the compound shown here, O=C1C(Cl)=C(Nc2ccc(F)cc2)C(=O)c2ccccc21 , give the reported IC50.
58.7

For the compound shown here, Cc1ccc(NC2=C(Cl)C(=O)c3ccccc3C2=O)cc1 , give the reported IC50.
42.2

###

- EXPERIMENTAL_DETAILS: Cytotoxic assay
- CONDITION_DESCRIPTION: human, MRC-5 normal embryonic lung cell line
EXPERIMENTAL_READOUT: IC50 at 48 h (µM)
Lab book: enter the figure in µM, no units written.

Observe how each entry below is paired with its result.
COMPOUND	IC50 at 48 h [µM]
Cc1ccc(NC2=C(Cl)C(=O)c3ccccc3C2=O)cc1	92.4
O=C1C(Br)=C(Nc2ccccc2)C(=O)c2ccccc21	15.3

For the compound shown here, O=C1C(Cl)=C(Nc2ccc([N+](=O)[O-])cc2)C(=O)c2ccccc21 , give the reported IC50 at 48 h.
74.9

For the compound shown here, O=C1C(Cl)=C(Nc2ccc(F)cc2)C(=O)c2ccccc21 , give the reported IC50 at 48 h.
20.2

For the compound shown here, COc1cccc2c1C(=O)c1c(O)c3c(c(O)c1C2=O)C[C@@](O)(C(=O)CO)C[C@@H]3O[C@H]1C[C@H](N)[C@H](O)[C@H](C)O1 [doxorubicin, reference compound] , give the reported IC50 at 48 h.
2.67

For the compound shown here, O=C1C(Br)=C(Nc2ccc(F)cc2)C(=O)c2ccccc21 , give the reported IC50 at 48 h.
12.5

###

- Tested on: T47D hormone-dependent breast cancer cell line
- EXPERIMENTAL_DETAILS: Cytotoxic assay
- CONDITION_DESCRIPTION: Homo sapiens, 48 h, read-out: Cytotoxic activity IC50, T47D
Below: a set of entries, each annotated with reported IC50.
Lab book: enter the figure in µM, no units written.

Observe how each entry below is paired with its result.
COMPOUND	EXPERIMENTAL_READOUT	OBS_VALUE
O=C1C(Cl)=C(Nc2ccc(F)cc2)C(=O)c2ccccc21	IC50	17.9
O=C1C(Cl)=C(Nc2ccc(O)cc2)C(=O)c2ccccc21	IC50	14.7
COc1cccc2c1C(=O)c1c(O)c3c(c(O)c1C2=O)C[C@@](O)(C(=O)CO)C[C@@H]3O[C@H]1C[C@H](N)[C@H](O)[C@H](C)O1 [doxorubicin, reference compound]	IC50	1.04
O=C1C=C(Nc2ccc(F)cc2)C(=O)c2ccccc21	IC50	88.7
Cc1ccc(NC2=C(Cl)C(=O)c3ccccc3C2=O)cc1	IC50	39.5

Read the next record carefully.
For the compound shown here, O=C1C(Cl)=C(Nc2ccc(C(F)(F)F)cc2)C(=O)c2ccccc21 , give the reported IC50.
63.4
